assay: logD by shake flask method (octanol / PBS pH 7.4, HPLC); format: physicochemical; details: octanol / PBS pH 7.4, shake flask
Overview of reported logD across a group of molecules:

Solved entries (count: 2):
CNC(=O)C(=O)CC[C@H](NC(=O)c1oc2ccccc2c1C)C(=O)Nc1cccn(CC(=O)NC2(C(=O)OC)C3CC4CC(C3)CC2C4)c1=O (stereo partly drawn) ... 1 to 3
O=C(Cn1cccc(NC(=O)[C@H](CCC(=O)C(=O)NC2CCCC2)NC(=O)c2nc3ccccc3s2)c1=O)N[C@@H]1C[C@@H]2CC[C@H]1C2 ... 3 to 5

Would you kindly look at the next entry?
Exercise: Consider the molecule "CNC(=O)C(=O)CC[C@H](NC(=O)c1cc(Cl)sc1Cl)C(=O)Nc1cccn(CC(=O)N[C@@H]2C[C@@H]3CC[C@H]2C3)c1=O" . State its measured logD.
Key: 1 to 3

Provenance of the data: patent US20240383856A1
